Test system: leucémie P 388
Assay: animal or person
Assay type: in vivo, souris hybrides CDF 1
Conditions: in vivo, ip, 10 mg/kg
Result type: Variation pondérale en g

CCN(CC)CCCNc1nc2ccccc2c2c1c1cc(O)ccc1n2C: - 0,6 g
CCN(CC)CCCNc1nc2ccccc2c2[nH]c3ccc(OC)cc3c12: - 0,6 g
